Attribution: PubChem BioAssay AID1963864

This section presents compounds with their documented viability, T/C values.
- Tested on: KRAS PDC multicell spheroid viability
- protocol_description: Anticancer human tumor 521955-158-R6-J3-PDC patient-derived pancreatic carcinoma cell line growth inhibition [KRAS2]
- run_conditions: second compound 0.316 µM; first compound 0.316 µM; stronger effect = lower value
observable: viability, T/C

| compound | assayed_target | reported_result |
| --- | --- | --- |
| CC(C)NCC(C(=O)N1CCN(c2ncnc3c2C(C)CC3O)CC1)c1ccc(Cl)cc1 (stereo not given) + C=CC(=O)N1CCN(c2nc(=O)n(-c3c(C)ccnc3C(C)C)c3nc(-c4c(O)cccc4F)c(F)cc23)C(C)C1 | KRAS PDC multicell spheroid viability | 72.5% |
| CCN1CCN(Cc2ccc(Nc3ncc(F)c(-c4cc(F)c5nc(C)n(C(C)C)c5c4)n3)nc2)CC1 + C=CC(=O)N1CCN(c2nc(OCC3CCCN3C)nc3c2CCN(c2cccc4cccc(C)c24)C3)CC1CC#N | KRAS PDC multicell spheroid viability | 87.8% |
| COc1cc2nccc(Oc3ccc(NC(=O)C4(C(=O)Nc5ccc(F)cc5)CC4)cc3)c2cc1OC + C=CC(=O)N1CCN(c2nc(=O)n(-c3c(C)ccnc3C(C)C)c3nc(-c4c(O)cccc4F)c(F)cc23)C(C)C1 | KRAS PDC multicell spheroid viability | 102% |
| CCN1CCN(Cc2ccc(Nc3ncc(F)c(-c4cc(F)c5nc(C)n(C(C)C)c5c4)n3)nc2)CC1 + CC1OCC2(CCN(c3cnc(Sc4ccnc(N)c4Cl)c(N)n3)CC2)C1N | KRAS PDC multicell spheroid viability | 71.8% |
| COc1cc2nccc(Oc3ccc(NC(=O)C4(C(=O)Nc5ccc(F)cc5)CC4)cc3)c2cc1OC + COc1cc2nc(C)nc(NC(C)c3cc(N)cc(C(F)(F)F)c3)c2cc1OC1CCOC1 | KRAS PDC multicell spheroid viability | 90.1% |

====

- System: KRAS PDC multicell spheroid viability
- protocol_description: Anticancer human tumor 521955-158-R6-J3-PDC cell line growth inhibition [KRAS2];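 further: drug exposure lasted seven days; 100% = DMSO vehicle wells and lower means fewer viable cells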
- run_conditions: second compound 10 µM; first compound 0.000316 µM; stronger effect = lower value
observable: viability, T/C (%)

| molecule | observable | unit_of_measure | reported_result |
| --- | --- | --- | --- |
| CN(C)C/C=C/C(=O)Nc1cc2c(Nc3ccc(F)c(Cl)c3)ncnc2cc1O[C@H]1CCOC1 + C=CC(=O)N1CCN(c2nc(=O)n(-c3c(C)ccnc3C(C)C)c3nc(-c4c(O)cccc4F)c(F)cc23)C(C)C1 | viability, T/C | % | 73.2 |
| CC(=O)Nc1cccc(-n2c(=O)n(C3CC3)c(=O)c3c(Nc4ccc(I)cc4F)n(C)c(=O)c(C)c32)c1 + C=CC(=O)N1CCN(c2nc(=O)n(-c3c(C)ccnc3C(C)C)c3nc(-c4c(O)cccc4F)c(F)cc23)C(C)C1 | viability, T/C | % | 69.8 |
| CN(C)C/C=C/C(=O)Nc1cc2c(Nc3ccc(F)c(Cl)c3)ncnc2cc1O[C@H]1CCOC1 + CNCc1ccccc1-c1csc(C(C)Nc2nc(C)nc3cc(OC)c(OC)cc23)c1 | viability, T/C | % | 0.34 |
| CC(C)n1nc(-c2ccc3oc(N)nc3c2)c2c(N)ncnc21 + CNCc1ccccc1-c1csc(C(C)Nc2nc(C)nc3cc(OC)c(OC)cc23)c1 | viability, T/C | % | 0.75 |
| CC(C)n1nc(-c2ccc3oc(N)nc3c2)c2c(N)ncnc21 + CC1OCC2(CCN(c3cnc(Sc4ccnc(N)c4Cl)c(N)n3)CC2)C1N | viability, T/C | % | 99.1 |
| CC(C)n1nc(-c2ccc3oc(N)nc3c2)c2c(N)ncnc21 + COc1cc2nc(C)nc(NC(C)c3cc(N)cc(C(F)(F)F)c3)c2cc1OC1CCOC1 | viability, T/C | % | 32 |
| CC(=O)Nc1cccc(-n2c(=O)n(C3CC3)c(=O)c3c(Nc4ccc(I)cc4F)n(C)c(=O)c(C)c32)c1 + COc1cc2nc(C)nc(NC(C)c3cc(N)cc(C(F)(F)F)c3)c2cc1OC1CCOC1 | viability, T/C | % | 21.2 |
| CC(=O)Nc1cccc(-n2c(=O)n(C3CC3)c(=O)c3c(Nc4ccc(I)cc4F)n(C)c(=O)c(C)c32)c1 + CNCc1ccccc1-c1csc(C(C)Nc2nc(C)nc3cc(OC)c(OC)cc23)c1 | viability, T/C | % | 1.9 |
| CC(=O)Nc1cccc(-n2c(=O)n(C3CC3)c(=O)c3c(Nc4ccc(I)cc4F)n(C)c(=O)c(C)c32)c1 + CC1OCC2(CCN(c3cnc(Sc4ccnc(N)c4Cl)c(N)n3)CC2)C1N | viability, T/C | % | 70.9 |
| Cn1ncnc1[C@H]1c2n[nH]c(=O)c3cc(F)cc(c23)N[C@@H]1c1ccc(F)cc1 + COc1cc2nc(C)nc(NC(C)c3cc(N)cc(C(F)(F)F)c3)c2cc1OC1CCOC1 | viability, T/C | % | 23.4 |
| CN(C)C/C=C/C(=O)Nc1cc2c(Nc3ccc(F)c(Cl)c3)ncnc2cc1O[C@H]1CCOC1 + COc1cc2nc(C)nc(NC(C)c3cc(N)cc(C(F)(F)F)c3)c2cc1OC1CCOC1 | viability, T/C | % | 59.8 |
